Reference source: ChEMBL document CHEMBL1667823

Attribute: Intrinsic activity
- Test system: CHO-Galpha16
- Assay overview: Intrinsic activity at rat MT1 receptor expressed in CHO-Galpha16 cells assessed as Ca2+ mobilization after 20 mins by FLIPR assay relative to ramelteon
- Format: cell-based
Endpoint label: Intrinsic activity

> print(dat)
                                   compound      endpoint.label  reported.measurement
1           O=C(C1CC1)N1CCC(c2cccc(O)c2)CC1  Intrinsic activity                   96%
2   COc1cc(N2CCC[C@H](NC(=O)C3CC3)C2)ccc1Cl  Intrinsic activity                   73%
3          COc1ccc(C2CCN(C(=O)C3CC3)CC2)cc1  Intrinsic activity                   58%
4              COc1cccc(C2CCN(C(C)=O)CC2)c1  Intrinsic activity                    6%
5  COc1cccc(N2CCCC(NC(=O)C3CC3)C2)c1 (racemic)  Intrinsic activity                   85%
